Consider the following molecules; for each one, report its inhibition.
# TEST_TARGET: Ephrin type-A receptor 3 (Homo sapiens) (UniProt P29320);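 further: values are mean inhibition of EPHA3, from the GSK PKIS dataset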
# Sequence (P29320 whole entry): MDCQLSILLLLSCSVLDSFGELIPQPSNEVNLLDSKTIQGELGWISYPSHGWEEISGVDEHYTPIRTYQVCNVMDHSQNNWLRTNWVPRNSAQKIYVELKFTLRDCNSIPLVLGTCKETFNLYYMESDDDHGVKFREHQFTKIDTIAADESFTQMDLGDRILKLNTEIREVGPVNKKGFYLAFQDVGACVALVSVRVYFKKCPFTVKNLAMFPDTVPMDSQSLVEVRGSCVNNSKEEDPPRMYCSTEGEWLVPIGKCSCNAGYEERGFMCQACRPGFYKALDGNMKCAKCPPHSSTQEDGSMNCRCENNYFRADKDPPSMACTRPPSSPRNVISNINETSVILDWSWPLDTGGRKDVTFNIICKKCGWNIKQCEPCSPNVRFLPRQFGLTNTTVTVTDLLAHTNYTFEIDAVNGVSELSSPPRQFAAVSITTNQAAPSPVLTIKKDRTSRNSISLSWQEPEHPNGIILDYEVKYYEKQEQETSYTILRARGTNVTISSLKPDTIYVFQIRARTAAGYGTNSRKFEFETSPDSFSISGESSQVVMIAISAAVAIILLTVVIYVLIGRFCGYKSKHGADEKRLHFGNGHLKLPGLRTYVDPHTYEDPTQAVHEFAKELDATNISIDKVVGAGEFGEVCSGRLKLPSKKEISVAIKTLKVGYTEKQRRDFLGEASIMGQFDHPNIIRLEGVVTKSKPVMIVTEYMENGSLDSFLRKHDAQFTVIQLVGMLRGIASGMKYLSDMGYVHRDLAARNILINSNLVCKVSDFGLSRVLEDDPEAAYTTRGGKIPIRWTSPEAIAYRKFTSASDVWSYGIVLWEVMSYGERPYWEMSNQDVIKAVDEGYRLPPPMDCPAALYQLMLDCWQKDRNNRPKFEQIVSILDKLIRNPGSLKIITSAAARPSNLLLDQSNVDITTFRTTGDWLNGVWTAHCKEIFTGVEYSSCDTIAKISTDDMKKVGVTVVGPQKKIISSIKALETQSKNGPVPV
# SETUP_CONDITIONS: at 0.1 µM
Give bare numbers, in %.

Worked cases, inhibition given:
ON=C1CCc2cc(-c3nc(C4CCNCC4)[nH]c3-c3ccncc3)ccc21 = 0.3
Cc1ccc(Nc2ccnc(Nc3cccc(C(N)=O)c3)n2)cc1O = 14.3
Cc1ccc(C(=O)NC2CC2)cc1-c1ccc2[nH]ncc2c1 = -6.73

List inhibition for every entry below, keeping the order given.
1. C[C@@H](Oc1cc(-n2cnc3ccc(OC[C@@H](O)CO)cc32)sc1C(N)=O)c1ccccc1Cl
2. Nc1nccc(-c2c(-c3ccc(F)cc3)ncn2CCCN2CCOCC2)n1

## Result
[-2.37, 0.74]

---

# TEST_TARGET: Tyrosine-protein kinase HCK (Homo sapiens) (UniProt P08631);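 further: values are mean inhibition of HCK, taken from the GSK_PKIS kinase profiling screen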
# Sequence (P08631 2-526 limits assumed): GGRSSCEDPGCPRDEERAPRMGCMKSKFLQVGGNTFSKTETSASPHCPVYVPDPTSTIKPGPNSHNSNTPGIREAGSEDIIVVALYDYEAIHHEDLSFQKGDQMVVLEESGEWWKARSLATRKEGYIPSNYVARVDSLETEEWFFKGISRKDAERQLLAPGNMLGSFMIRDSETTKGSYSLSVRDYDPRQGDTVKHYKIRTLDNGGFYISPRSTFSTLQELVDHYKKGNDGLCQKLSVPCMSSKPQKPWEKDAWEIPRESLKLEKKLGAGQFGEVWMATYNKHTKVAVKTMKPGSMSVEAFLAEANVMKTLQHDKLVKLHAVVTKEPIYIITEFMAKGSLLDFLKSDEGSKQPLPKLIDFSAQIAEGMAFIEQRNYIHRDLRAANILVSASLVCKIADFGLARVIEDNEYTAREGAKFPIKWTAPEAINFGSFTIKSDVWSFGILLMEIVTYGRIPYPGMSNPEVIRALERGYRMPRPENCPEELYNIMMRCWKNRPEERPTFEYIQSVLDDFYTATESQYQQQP
# SETUP_CONDITIONS: at 0.1 µM
Please provide measured inhibition for the entries that follow.
Answers are plain numbers, in %.

NS(=O)(=O)c1ccc(N/N=C2\C(=O)Nc3ccc(Cl)cc32)cc1 = 5
COc1cc(/C=N/Nc2ncnc3c2cnn3C(C)C)ccc1O = 7.16
Cc1ccc(C(=O)NC2CC2)cc1-c1ccc2[nH]ncc2c1 = -3.84
COc1ccc2ncnc(Nc3ccc(OCc4ccccc4)cc3)c2c1 = 2.78
O=C1Nc2ccc(-c3cccnc3)cc2C1=Cc1cc(Br)c(O)c(Br)c1 = 3.63

For every item in the list below, what is its measured inhibition?
1. COc1cc2ncn(-c3cc(OCc4ccccc4S(C)(=O)=O)c(C#N)s3)c2cc1OC
2. CN(C)C(=O)O[C@@H]1CN[C@@H](C#Cc2cc3ncnc(Nc4ccc(OCc5cccc(F)c5)c(Cl)c4)c3s2)C1
3. COc1cc2ncnc(Nc3ccc4c(cnn4Cc4ccccc4)c3)c2cc1OC

## Result
1: 16.2; 2: 1.53; 3: 11.4

Provide inhibition for all items below, preserving their order.
1. NS(=O)(=O)c1ccc(Nc2cc(-c3cccc(O)c3)n[nH]2)cc1
2. NS(=O)(=O)c1cccc(-c2cc3ccncc3cc2OCc2ccccc2)c1
3. CCn1c(-c2nonc2N)nc2ccc(F)cc21

## Result
1. 5.06
2. 7.87
3. 4.97

Items follow; give inhibition for each.
1. Cc1ccc(O)cc1Nc1ccnc2ccc(S(C)(=O)=O)cc12
2. O=C1Nc2ccccc2/C1=C/Nc1ccc2[nH]c(=O)[nH]c2c1
3. OCc1ccc(-c2nc(-c3ccccn3)c(-c3ccc4c(c3)OCO4)[nH]2)cc1
4. C[C@@H](Oc1cc(-n2cnc3ccc(OC[C@@H](O)CO)cc32)sc1C(N)=O)c1ccccc1Cl

## Result
87.2
7.89
9.2
-0.15

---

Give measured inhibition for each item. Keep answers brief.
# TEST_TARGET: Serine/threonine-protein kinase pim-1 (Homo sapiens) (UniProt P11309);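 further: reported figures are mean percent inhibition of PIM1 kinase activity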
# Sequence (P11309 whole entry, looked up): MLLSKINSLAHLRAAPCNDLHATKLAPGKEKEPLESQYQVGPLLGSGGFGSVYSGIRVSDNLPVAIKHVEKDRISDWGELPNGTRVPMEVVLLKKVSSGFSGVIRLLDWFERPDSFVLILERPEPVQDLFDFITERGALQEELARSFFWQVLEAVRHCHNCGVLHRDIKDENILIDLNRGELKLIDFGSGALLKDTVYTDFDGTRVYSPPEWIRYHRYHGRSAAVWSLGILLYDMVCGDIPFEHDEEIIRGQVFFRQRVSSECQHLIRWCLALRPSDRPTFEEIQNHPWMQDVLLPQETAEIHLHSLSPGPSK
# SETUP_CONDITIONS: at 1 µM
Give bare numbers, in %.

For orientation, consider the following solved cases.
CCOc1nccc2c1nc(-c1nonc1N)n2CC = 2.04
Nc1nccc(C#Cc2cncnc2Nc2ccc(OCc3cccc(F)c3)c(Cl)c2)n1 = 1.16
COC(=O)c1cncc(/C=C/c2c(C)cc(O)cc2C)c1 = 1.55
Cc1nc(-c2ccccc2)n2nc(NCCCN3CCOCC3)ncc12 = 0.37
Cc1cc(Cl)cc2c1NC(=O)C2=NNc1ccc(S(N)(=O)=O)cc1 = 1.28

For the 8 compounds below, give their inhibition values.
1. NS(=O)(=O)c1cccc(Nc2cc(-c3ccc(F)cc3)n[nH]2)c1
2. OCc1ccc(-c2nc(-c3ccccn3)c(-c3ccc4c(c3)OCO4)[nH]2)cc1
3. COc1ccc(-c2nn3ncccc3c2-c2ccnc(Nc3cccc(C(F)(F)F)c3)n2)cc1
4. O=C1Nc2ccc(-c3cccnc3)cc2C1=Cc1cc(Br)c(O)c(Br)c1
5. Cc1cc(-c2ccccn2)cc(C)c1/C=C/c1cncc(-c2nn[nH]n2)c1
6. FC(F)(F)c1ccc(-c2nn3ncccc3c2-c2ccnc(Nc3ccc4c(c3)OCCO4)n2)cc1
7. NC(=O)c1sc(-n2cnc3ccccc32)cc1OCc1ccccc1Br
8. Nc1nccc(-c2c(-c3ccc(F)cc3)nn3cc(C(F)(F)F)ccc23)n1

## Result
1.68
0.98
0.66
37.6
2.55
1.86
3.08
-0.89

For each of the compounds below, note its inhibition.
1. Cc1ccc2c(c1)/C(=N/Nc1ccc(S(N)(=O)=O)cc1)C(=O)N2
2. Oc1cccc(-c2nc(-c3ccccc3)[nH]c2-c2ccncc2)c1
3. Cc1ccc(NC(=O)CC2CC2)cc1-c1ccc(C(=O)NCC2CC2)cc1
4. COC(=O)c1ccc2c(c1)C(=Cc1cc(Br)c(O)c(Br)c1)C(=O)N2
5. CS(=O)(=O)CCNCc1nc(-c2ccc3ncnc(Nc4ccc(OCc5cccc(C(F)(F)F)c5)cc4)c3c2)cs1
6. COc1cc2ncnc(Nc3ccc(C)c(O)c3)c2cc1OC

## Result
0.99
2.57
0.73
50.9
-0.28
1.44

Would you mind giving inhibition for every compound in the list below?
1. COc1cccc(-n2ncc3c(N/N=C/c4ccc(C)cc4)ncnc32)c1
2. ON=C1CCc2cc(-c3nc(C4CCNCC4)[nH]c3-c3ccncc3)ccc21
3. CCn1c(-c2nonc2N)nc2ccc(F)cc21

## Result
3.51
0.9
1.85

Summary for this compound, "CCS(=O)(=O)c1ccc(OC)c(Nc2nccc(N(C)c3ccc4c(C)n[nH]c4c3)n2)c1" : inhibition is 1.44

---

Give measured inhibition for each item. Keep answers brief.
# TEST_TARGET: Serine/threonine-protein kinase Nek7 (Homo sapiens) (UniProt Q8TDX7);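 further: figures are averaged percent inhibition of NEK7 kinase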
# Sequence (Q8TDX7 whole entry, looked up): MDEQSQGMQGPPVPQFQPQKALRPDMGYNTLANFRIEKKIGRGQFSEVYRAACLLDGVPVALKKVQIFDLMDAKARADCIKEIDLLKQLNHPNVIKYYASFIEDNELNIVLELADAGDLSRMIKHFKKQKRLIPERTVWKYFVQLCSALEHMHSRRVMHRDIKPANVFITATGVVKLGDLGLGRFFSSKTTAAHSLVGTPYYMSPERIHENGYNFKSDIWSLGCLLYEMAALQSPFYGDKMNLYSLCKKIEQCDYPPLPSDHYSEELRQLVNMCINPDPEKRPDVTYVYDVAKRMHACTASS
# SETUP_CONDITIONS: at 0.1 µM
One number for each entry, in %.

C[C@@H](Oc1cc(-n2cnc3ccc(OC[C@@H](O)CO)cc32)sc1C(N)=O)c1ccccc1Cl = 0.63
COC(=O)c1cncc(/C=C/c2c(C)cc(O)cc2C)c1 = 2.47
COc1cc2ncn(-c3cc(OCc4ccccc4S(C)(=O)=O)c(C#N)s3)c2cc1OC = 4.85

Could you report inhibition for every entry in the following list?
1. O=S(=O)(CCOCc1ccc(-c2ccc3ncnc(Nc4ccc(OCc5cccc(F)c5)c(Cl)c4)c3c2)o1)c1ccccc1
2. O=C1Nc2ccc(-c3cccnc3)cc2C1=Cc1cc(Br)c(O)c(Br)c1

## Result
1. 1.66
2. 5.27

---

Assign inhibition to each entry below.
# TEST_TARGET: Serine/threonine-protein kinase 26 (Homo sapiens);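 further: mean inhibition of MST4 kinase activity, reported from the GSK PKIS inhibitor-set screening panel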
# SETUP_CONDITIONS: at 1 µM
One number for each entry, in %.

Check out these entries, answers already filled in.
Cc1ccc2c(-c3ccnc(Nc4cccc(C(F)(F)F)c4)n3)c(-c3ccccc3)nn2n1 = 13.3
COc1cc2ncnc(Nc3ccc(C)c(O)c3)c2cc1OC = -1.08
CC(C)c1ccc2c(c1)NC(=O)/C2=N/Nc1ccc(S(N)(=O)=O)cc1 = 0.01

I'm hoping you can list inhibition for every compound here, please.
1. O=S(=O)(CCOCc1ccc(-c2ccc3ncnc(Nc4ccc(OCc5cccc(F)c5)c(Cl)c4)c3c2)o1)c1ccccc1
2. c1ccc(Nc2ncc(-c3ccccc3)o2)cc1

## Result
1. 0.25
2. 0.04

---

Hi there, I'd appreciate the recorded inhibition for every entry that follows.
# TEST_TARGET: Serine/threonine-protein kinase Sgk2 (Homo sapiens) (UniProt Q9HBY8)
# Sequence (Q9HBY8 whole entry): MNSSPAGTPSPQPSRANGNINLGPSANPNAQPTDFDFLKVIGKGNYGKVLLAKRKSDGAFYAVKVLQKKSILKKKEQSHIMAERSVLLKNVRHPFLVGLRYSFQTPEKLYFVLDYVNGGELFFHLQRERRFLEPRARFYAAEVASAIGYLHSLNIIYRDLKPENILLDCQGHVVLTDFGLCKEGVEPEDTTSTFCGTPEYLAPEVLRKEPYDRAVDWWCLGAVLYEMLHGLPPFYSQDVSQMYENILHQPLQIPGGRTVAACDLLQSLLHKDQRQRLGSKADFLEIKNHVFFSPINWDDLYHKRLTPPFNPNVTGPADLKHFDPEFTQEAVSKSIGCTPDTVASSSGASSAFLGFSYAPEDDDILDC
# SETUP_CONDITIONS: at 1 µM
# Description: GSK_PKIS: SGK2 mean inhibition at 1 uM [Nanosyn]
One number for each entry, in %.

Example entries and their recorded answers appear below.
CS(=O)(=O)CCNCc1nc(-c2ccc3ncnc(Nc4ccc(OCc5cccc(C(F)(F)F)c5)cc4)c3c2)cs1 = 2.19
O=C(Nc1ccc(Oc2ccc3[nH]c(NC(=O)c4ccco4)nc3c2)cc1)Nc1cc(C(F)(F)F)ccc1F = 2.52
c1ccc(Cc2nc3ccc(Nc4ncnc5ccccc45)cc3[nH]2)cc1 = 5.44
CCn1c(-c2nonc2N)nc2c(C#CC(C)(C)O)nc(OCCNC)cc21 = 4.48
c1ccc(Nc2ncc(-c3ccccc3)o2)cc1 = 0.08
COC(=O)Nc1nc2cc(Oc3ccc(NC(=O)Nc4cccc(Br)c4)cc3)ccc2[nH]1 = 3.07
Cc1cc(Cl)cc2c1NC(=O)C2=NNc1ccc(S(N)(=O)=O)cc1 = 7.78
CN1CCN(C(=O)c2ccc(NC(=O)Nc3ccc(N(C)c4ccnc(Nc5ccc(CS(C)(=O)=O)cc5)n4)cc3)cc2)CC1 = 7.04

Provide inhibition values for the following items, in order.
1. COc1cccc(-n2nc(C)c3c(N/N=C(\C)c4ccncc4)ncnc32)c1
2. COc1ccc2ncnc(Nc3ccc(OCc4ccccc4)cc3)c2c1
3. CN(C)C(=O)O[C@@H]1CN[C@@H](C#Cc2cc3ncnc(Nc4ccc(OCc5cccc(F)c5)c(Cl)c4)c3s2)C1
4. COC(=O)c1ccc2c(c1)C(=Cc1cc(Br)c(O)c(Br)c1)C(=O)N2

## Result
1: 5.85; 2: -0.13; 3: 1.45; 4: 12.1

Record inhibition for all entries; do not skip any.
1. Cc1ccc(Nc2ccnc(Nc3cccc(C(N)=O)c3)n2)cc1O
2. CN(C)CCCn1c(-c2nonc2N)nc2cnccc21

## Result
1. 3.06
2. 2.34

Hi team, please reply with inhibition for each item in this list.
1. Nc1nccc(C#Cc2cncnc2Nc2ccc(OCc3cccc(F)c3)c(Cl)c2)n1
2. FC(F)(F)c1ccc(-c2nn3ncccc3c2-c2ccnc(Nc3ccc4c(c3)OCCO4)n2)cc1
3. Cc1nc(-c2ccccc2)n2nc(NCCCN3CCOCC3)ncc12
4. ON=C1CCc2cc(-c3nc(C4CCNCC4)[nH]c3-c3ccncc3)ccc21

## Result
1. 3.69
2. 10.8
3. 0.65
4. -1.29

Would you mind giving inhibition for every molecule in the list below?
1. Cc1ccc(O)cc1Nc1ccnc2ccc(S(C)(=O)=O)cc12
2. Nc1nccc(-c2c(-c3ccc(F)cc3)ncn2CCCN2CCOCC2)n1

## Result
4.71
6.95
